molecular target: GluN1/2B (Rattus norvegicus, UniProt P35439+Q00960); construct: from tissue; host or cells: Wistar rat whole brain homogenate; assay: In vitro GluN1/2B competitive binding assay with [3H]OF-NB1; conditions: radioligand [3H]OF-NB1; Wistar rat brain homogenates; 25 °C
Sequence (Q00960 27-1482, other chains not shown): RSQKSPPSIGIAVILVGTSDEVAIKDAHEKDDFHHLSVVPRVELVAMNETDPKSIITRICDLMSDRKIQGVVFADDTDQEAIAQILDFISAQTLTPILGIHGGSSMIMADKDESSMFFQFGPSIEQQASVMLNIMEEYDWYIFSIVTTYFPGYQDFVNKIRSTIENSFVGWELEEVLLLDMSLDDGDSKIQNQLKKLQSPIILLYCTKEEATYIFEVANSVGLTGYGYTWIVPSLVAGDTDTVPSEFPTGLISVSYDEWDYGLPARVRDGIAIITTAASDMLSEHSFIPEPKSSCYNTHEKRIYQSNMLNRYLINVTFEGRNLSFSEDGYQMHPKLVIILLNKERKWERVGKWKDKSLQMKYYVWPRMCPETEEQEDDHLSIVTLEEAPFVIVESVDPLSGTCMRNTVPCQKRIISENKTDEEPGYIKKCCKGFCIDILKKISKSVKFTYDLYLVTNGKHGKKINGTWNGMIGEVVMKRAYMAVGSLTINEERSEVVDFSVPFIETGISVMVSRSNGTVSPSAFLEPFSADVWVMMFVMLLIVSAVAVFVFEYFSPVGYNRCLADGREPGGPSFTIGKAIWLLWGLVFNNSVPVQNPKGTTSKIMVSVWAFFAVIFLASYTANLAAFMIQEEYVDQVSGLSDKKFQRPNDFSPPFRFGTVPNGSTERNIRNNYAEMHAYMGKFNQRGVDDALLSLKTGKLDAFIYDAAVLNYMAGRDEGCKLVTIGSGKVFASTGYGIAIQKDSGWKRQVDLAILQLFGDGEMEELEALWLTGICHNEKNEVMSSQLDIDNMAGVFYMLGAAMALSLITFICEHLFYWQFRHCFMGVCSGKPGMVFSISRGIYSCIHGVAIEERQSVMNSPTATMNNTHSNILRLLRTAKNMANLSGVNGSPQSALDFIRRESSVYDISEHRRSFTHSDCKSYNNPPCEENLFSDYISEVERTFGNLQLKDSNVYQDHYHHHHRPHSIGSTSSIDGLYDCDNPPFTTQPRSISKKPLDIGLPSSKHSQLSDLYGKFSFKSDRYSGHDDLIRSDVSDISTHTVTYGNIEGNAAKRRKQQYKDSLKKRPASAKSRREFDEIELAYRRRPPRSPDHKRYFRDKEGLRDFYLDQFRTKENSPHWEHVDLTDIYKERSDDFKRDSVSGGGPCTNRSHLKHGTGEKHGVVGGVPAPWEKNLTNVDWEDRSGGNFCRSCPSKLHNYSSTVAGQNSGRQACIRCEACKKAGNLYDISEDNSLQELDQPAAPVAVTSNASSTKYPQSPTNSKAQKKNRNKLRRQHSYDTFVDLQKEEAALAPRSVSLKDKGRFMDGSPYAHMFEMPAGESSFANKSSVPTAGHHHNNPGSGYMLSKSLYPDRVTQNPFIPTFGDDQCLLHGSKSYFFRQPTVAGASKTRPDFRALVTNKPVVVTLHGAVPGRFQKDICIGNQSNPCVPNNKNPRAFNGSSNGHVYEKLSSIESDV
pKi: −log10 of the molar value.
measured.attribute: pKi

>>> df
                            smiles_entry  measured_attribute  endpoint_value
0  COc1ccc(CCN2CCN(CCCc3ccccc3)CC2)cc1OC                 pKi          < 4.00

* * *

target: σ1R (Rattus norvegicus)
Sequence (Q9R0C9 whole entry): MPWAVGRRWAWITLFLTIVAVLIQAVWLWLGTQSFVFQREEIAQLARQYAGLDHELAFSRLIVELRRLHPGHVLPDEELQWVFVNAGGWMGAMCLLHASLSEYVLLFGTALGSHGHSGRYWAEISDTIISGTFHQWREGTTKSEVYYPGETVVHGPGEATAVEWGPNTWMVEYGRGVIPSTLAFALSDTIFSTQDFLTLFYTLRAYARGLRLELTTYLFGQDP
pKi: −log10 of the molar value.
measured.attribute: pKi

>>> df
                               smiles_entry  endpoint_value
0  C[C@@H]([C@@H](O)c1ccc(O)cc1)N1CCC(O)(c2ccccc2)CC1            7.03

* * *

target: GluN1/2B (Rattus norvegicus, UniProt P35439+Q00960); construct: from tissue; host or cells: Wistar rat whole brain homogenate; test: In vitro GluN1/2B competitive binding assay with [3H]ifenprodil; conditions: radioligand [3H]ifenprodil; Wistar rat brain homogenates; 25 °C
pKi: −log10 of the molar value.
measured.attribute: pKi

>>> df
                            smiles_entry  endpoint_value
0  COc1ccc(CCN2CCN(CCCc3ccccc3)CC2)cc1OC            7.29
